- TARGET_SYSTEM: Luciferin 4-monooxygenase (Photinus pyralis)
- MEASUREMENT_DESCRIPTION: qHTS profiling assay for firefly luciferase inhibitor/activator using purifed enzyme and Km concentrations of substrates (counterscreen for miR-21 project); note: nearly all actives have a fitted effect of over 55% in size; note: potency is the fitted concentration of half-maximal effect
- TEST_CONDITIONS: purified FLuc, luminescence inhibition; series mostly up to 57.5 µM
The campaign covered roughly 360,000 compounds. About 25,000 (6.9%) were called active. Not shown: some 9% with an inconclusive outcome. The entries come from a sample that favours actives as a whole.
RECORDED_METRIC: Potency

Field: example entries. Status: answers known.
COMPOUND	TARGET_SYSTEM	Potency
COc1cccc(C2C(C(=O)Nc3ccc(C)cc3C)=C(C)Nc3c(C(=O)Nc4ccccc4)cnn32)c1 (stereo unspecified)	Luciferin 4-monooxygenase (Photinus pyralis)	inactive
COc1cc(/C=N/NC(=O)Cc2ccccc2)cc(OC)c1OC	Luciferin 4-monooxygenase (Photinus pyralis)	inactive
CCOC(=O)c1ccc(NC(=O)C2CC(=O)N(c3ccc(C(C)C)cc3)C2)cc1 (stereo unspecified)	Luciferin 4-monooxygenase (Photinus pyralis)	inactive
CCOc1ccc2[nH]c(C(=O)N/N=C/c3cccc(OC)c3OC)cc2c1	Luciferin 4-monooxygenase (Photinus pyralis)	15.1 µM (active)
COc1cc2cc(C(=O)N/N=C/c3cccc(OC)c3OC)[nH]c2cc1OC	Luciferin 4-monooxygenase (Photinus pyralis)	16.9 µM (active)

Sample `COc1cccc(/C=N/NC(=O)CNC(=O)c2ccc(S(=O)(=O)N3CCOCC3)cc2)c1OC` ; Potency observed: inactive
